Here, each record is paired with measured growth inhibition data.
# Protocol Notes: NCI Yeast Anticancer Drug Screen. Data for the cln2 rad14 strain (AID 165);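 note: 0% = growth equal to vehicle treated cultures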
# Assay Context: S. cerevisiae cln2 rad14 strain, at 50.0 µM, hits give high values
This is part of a sample that, as a whole, favours compounds with a hit. Of some 79,000 tested, about 15% had one in any assay.
Property Label: growth inhibition (%)

Compound | Property Label | Unit Text | Measurement
CNC(=O)C(CC(C)[N+](C)(C)C)(c1ccccc1)c1ccccc1 (configuration not stated) | growth inhibition | % | 17.9
CCOC(=O)C(Br)Br | growth inhibition | % | 22.2
O=C1SCCC1NP(=O)(Oc1ccccc1)Oc1ccccc1 (configuration not stated) | growth inhibition | % | -10.9
O=P(N1CCOCC1)(N1CC1)N1CC1 | growth inhibition | % | 13.7
O=C1C[C@@H]2OCC=C3C[N+]4([O-])CC[C@]56c7ccccc7N1[C@H]5[C@H]2[C@H]3C[C@@H]64 (some centres not stated) | growth inhibition | % | 0.9
COc1ccc(N=NC(=O)NC(CC(C)C)C(=O)NCC(=O)O)cc1 (configuration not stated) | growth inhibition | % | 28.8
O=[As]c1ccc(C(=O)O)cc1 (configuration not stated) | growth inhibition | % | 19.3
CC(Cl)C(=O)OC(C)C(=O)O (configuration not stated) | growth inhibition | % | 8
CCN(CC)C1=C(N(CC)CC)C(N(CC)CC)=C(N(CC)CC)C1=O.[C-]#[O+].[C-]#[O+].[C-]#[O+].[Fe] | growth inhibition | % | -2.65
NS(=O)(=O)c1ccc([As]=O)cc1 (configuration not stated) | growth inhibition | % | -6.9
COc1cccc(OC)c1CCN | growth inhibition | % | -1.1
CC1(C)C2CC[C@@]1(C)C(=O)C2Br (some centres not stated) | growth inhibition | % | 7.55
